Target: T1, human tissue factor pathway inhibitor (TFPI) (human, UniProt P10646 29-304, limits assumed)
T1 construct: bought; also called hTFPI; human TFPI
T1 sequence (looked up): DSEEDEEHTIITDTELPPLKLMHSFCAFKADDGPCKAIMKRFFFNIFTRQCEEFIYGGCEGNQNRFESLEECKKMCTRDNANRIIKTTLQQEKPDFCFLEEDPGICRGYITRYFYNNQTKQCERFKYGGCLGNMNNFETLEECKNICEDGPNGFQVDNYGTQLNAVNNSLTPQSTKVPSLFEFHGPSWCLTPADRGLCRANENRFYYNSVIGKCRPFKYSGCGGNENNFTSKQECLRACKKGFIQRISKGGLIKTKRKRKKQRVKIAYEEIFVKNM
Assay: SPR, TFPI immobilized
EXPERIMENTAL_READOUT: kon (M⁻¹ s⁻¹)
# unit: M⁻¹ s⁻¹ | format: bare number

# count of solved cases: 3
BINDER	EXPERIMENTAL_READOUT	MEAS_VALUE
2A8-g216 (HC S31V+I51D+S55R+K99V/LC D1S+I2Y+A13S+S21T+R28P+N29K+Y48F+N51S+E80M+D91L+D92S+V94T+V96W) (Fab, V domains shown) VH: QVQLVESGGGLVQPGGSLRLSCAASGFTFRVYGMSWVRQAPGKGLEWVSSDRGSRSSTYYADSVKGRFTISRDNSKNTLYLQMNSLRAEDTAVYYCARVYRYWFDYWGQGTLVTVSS VL: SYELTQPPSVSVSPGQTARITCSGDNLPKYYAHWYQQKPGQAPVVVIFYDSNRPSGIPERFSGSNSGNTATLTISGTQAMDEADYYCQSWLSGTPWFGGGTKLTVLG	kon	1.45e+06
2A8-227 (HC S35D+K99L/LC Y48F+D91L+V96W) (Fab, V domains shown) VH: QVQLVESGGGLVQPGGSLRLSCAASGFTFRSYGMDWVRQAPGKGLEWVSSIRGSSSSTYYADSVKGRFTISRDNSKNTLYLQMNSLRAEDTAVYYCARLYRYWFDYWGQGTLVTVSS VL: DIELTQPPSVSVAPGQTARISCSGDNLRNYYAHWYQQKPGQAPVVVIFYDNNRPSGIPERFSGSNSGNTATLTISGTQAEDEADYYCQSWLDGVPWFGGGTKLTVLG	kon	3.28e+06
2A8-200 (HC S35D+S55R+K99L/LC Y48F+N51V+D91W) (Fab, V domains shown) VH: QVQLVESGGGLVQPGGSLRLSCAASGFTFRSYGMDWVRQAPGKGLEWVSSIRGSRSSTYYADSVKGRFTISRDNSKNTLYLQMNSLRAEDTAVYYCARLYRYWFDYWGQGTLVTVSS VL: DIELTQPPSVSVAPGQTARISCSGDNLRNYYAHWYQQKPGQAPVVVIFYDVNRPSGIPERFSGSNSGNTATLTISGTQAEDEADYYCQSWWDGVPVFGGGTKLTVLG	kon	2.87e+06

Shifting focus to the binder that follows.
Ask: # input binder: 2A8 wild-type Fab (Fab, V domains shown, Fab with c-myc (or HA, or none) and 6xHis tag at the C-terminus of the heavy chain; also called 2A8wt; 2A8 wt) VH: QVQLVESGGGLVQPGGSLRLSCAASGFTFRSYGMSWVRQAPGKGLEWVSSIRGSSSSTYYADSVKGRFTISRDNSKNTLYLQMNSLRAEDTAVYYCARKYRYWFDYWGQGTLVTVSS VL: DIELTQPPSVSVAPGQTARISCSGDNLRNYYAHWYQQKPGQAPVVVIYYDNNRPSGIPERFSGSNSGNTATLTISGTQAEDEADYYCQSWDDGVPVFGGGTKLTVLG ; wanted: its kon
Reply: 2.05e+06
